- assay: Tmax in mouse at 1 mg/kg, iv administered single dose
- Assay type: ADME, organism-based
- condition.details: in vivo
readout.kind: Tmax (min)
Numbers only, in min.

Return reported Tmax; argument: `CCN(CC)C(=O)c1cc(C(=O)c2ccccc2)n2cccc2c1`
5.4

###

- assay: MRT in mouse at 100 mg/kg, IG administered single dose
- Type: ADME, organism-based
- condition.details: in vivo, po
readout.kind: MRT

Return reported MRT; argument: `CCN(CC)C(=O)c1cc(C(=O)c2ccccc2)n2cccc2c1`
3.16 h

###

- assay: AUC (0 to t) in mouse at 100 mg/kg, IG administered single dose
- Format: ADME, organism-based
- condition.details: in vivo, po
readout.kind: AUC(0-t) (ng·h/mL)
Answers are plain numbers, in ng·h/mL.

Return reported AUC(0-t); argument: `CCN(CC)C(=O)c1cc(C(=O)c2ccccc2)n2cccc2c1`
10600
